Reference for the values: patent US7629318B2

# Target Or Test System: DR4Dw14 (DRA1*0101 DRB1*0404) (Homo sapiens, UniProt P01903+P01911, A100R/A169T/F76Y/I96L/K127E/L162R/M171V/N62H/P40V/Q125Y/R42H/S133A/S149N/S66Y/V209L/W38E)
# Protocol Text: Competitive binding to MHC-II protein DR4Dw14
# Details: 0404; read-out: Protein binding IC50 (nM) 0404
Numbered stars: 1 amine (or outer) side, 2 acyl side, 3 side chain; on linkers, the order of the positions; unused ones are H or OH. Square brackets hold non-standard residues; d marks the D form. Peptide text beside a SMILES is read from it. * marks the point of attachment. Gly(1-amidinopiperidin-4-yl) = N=C(N)N1CCC([C@H](N)C(=O)O)CC1; Tetrahydroisoquinolin(2-yl) = c1ccc2c(c1)CCN(*)C2; X1 = CC(C)c1oc([C@H](CO)N[*:1])nc1C(=O)[*:2]; Pro(3R-Ph) = O=C(O)[C@H]1NCC[C@@H]1c1ccccc1; Tic = O=C(O)[C@@H]1Cc2ccccc2CN1; Cha = N[C@@H](CC1CCCCC1)C(=O)O; NHPhenethyl = c1ccc(CCN*)cc1; NMe(benzyl) = CN(Cc1ccccc1)*; Nle = CCCC[C@H](N)C(=O)O; X2 = OCCOCCN(Cc1ccccc1)*; X6 = OCCN(CCc1ccccc1)*; X5 = OCCN(Cc1ccccc1)*; NHBn = c1ccc(CN*)cc1
Assay Endpoint: log10 IC50 (log10 of the value in nM)
For clarity, the numbers are log10 values of IC50 expressed in nM.

Consider the following illustrative entries.
[[record]]
compound = "CCCC[C@H](NC(=O)[C@@H]1Cc2ccccc2CN1C(=O)[C@@H](NC(=O)[C@H](CC1CCCCC1)NC(C)=O)C1CCN(C(=N)N)CC1)C(=O)NCCc1ccccc1 [Compound P69, Ac-Cha-Gpg-Tic-Nle-N(H)CH2CH2Ph] (Ac-[Cha][Gly(1-amidinopiperidin-4-yl)][Tic][Nle]-NHPhenethyl)"
reported = 3.65

[[record]]
compound = "CCCC[C@H](NC(=O)C1c2ccccc2CN1C(=O)[C@@H](NC(=O)[C@H](CC1CCCCC1)NC(C)=O)C1CCN(C(=N)N)CC1)C(=O)N(C)Cc1ccccc1 (single isomer, unassigned) [Compound P78-1]"
reported = 3.15

[[record]]
compound = "CCCC[C@H](NC(=O)[C@@H]1Cc2ccccc2CN1C(=O)[C@@H](NC(=O)[C@H](CC1CCCCC1)NC(C)=O)C1CCN(C(=N)N)CC1)C(=O)NCc1ccccc1 [Compound P68, Ac-Cha-Gpg-Tic-Nle-N(H)Bn] (Ac-[Cha][Gly(1-amidinopiperidin-4-yl)][Tic][Nle]-NHBn)"
reported = 3.30

[[record]]
compound = "CSCC[C@H](NC(=O)[C@@H]1Cc2ccccc2CN1C(=O)[C@@H](NC(=O)[C@H](CC1CCCCC1)NC(C)=O)C1CCN(C(=N)N)CC1)C(=O)N1CC[C@H](c2ccccc2)[C@H]1C(N)=O [Compound P80, Ac-Cha-Gpg-Tic-Met-βPhProNH2] (Ac-[Cha][Gly(1-amidinopiperidin-4-yl)][Tic]M[Pro(3R-Ph)]-NH2)"
reported = 2.67


Specify measured log10 IC50 for CCCC[C@H](NC(=O)[C@@H]1Cc2ccccc2CN1C(=O)[C@@H](NC(=O)[C@H](CC1CCCCC1)NC(C)=O)C1CCN(C(=N)N)CC1)C(=O)N(CCO)Cc1ccccc1 [Compound P78, Ac-Cha-Gpg-Tic-Nle-N(Bn)CH2CH2OH] (Ac-[Cha][Gly(1-amidinopiperidin-4-yl)][Tic][Nle]-X5) .
3.08

Specify measured log10 IC50 for CSCC[C@H](NC(=O)[C@@H]1Cc2ccccc2CN1C(=O)[C@H](CCCNC(=N)N)NC(=O)[C@H](CC1CCCCC1)NC(C)=O)C(N)=O [Compound P1, Ac-Cha-Arg-Tic-Met-NH2] (Ac-[Cha]R[Tic]M-NH2) .
3.36

Specify measured log10 IC50 for CCCC[C@H](NC(=O)[C@@H]1Cc2ccccc2CN1C(=O)[C@@H](NC(=O)[C@H](CC1CCCCC1)NC(C)=O)C1CCN(C(=N)N)CC1)C(=O)N(C)Cc1ccccc1 [Compound P74, Ac-Cha-Gpg-Tic-Nle-N(Me)Bn] (Ac-[Cha][Gly(1-amidinopiperidin-4-yl)][Tic][Nle]-{NMe(benzyl)}) .
3.34

Specify measured log10 IC50 for CSCC[C@H](NC(=O)[C@@H]1Cc2ccccc2CN1C(=O)[C@@H](NC(=O)[C@H](CC1CCCCC1)NC(C)=O)C1CCN(C(=N)N)CC1)C(=O)N1CC[C@H](c2ccccc2)[C@H]1C(=O)N[C@@H](CO)c1nc(C(=O)N(C)C)c(C(C)C)o1 [Compound P60] (Ac-[Cha][Gly(1-amidinopiperidin-4-yl)][Tic]M[Pro(3R-Ph)][X1]-NMe2) .
2.28

Specify measured log10 IC50 for CCCC[C@H](NC(=O)[C@@H]1Cc2ccccc2CN1C(=O)[C@@H](NC(=O)[C@H](CC1CCCCC1)NC(C)=O)C1CCN(C(=N)N)CC1)C(=O)N1CCc2ccccc2C1 [Compound P77] (Ac-[Cha][Gly(1-amidinopiperidin-4-yl)][Tic][Nle]-{Tetrahydroisoquinolin(2-yl)}) .
3.56

Specify measured log10 IC50 for CCCC[C@H](NC(=O)[C@@H]1Cc2ccccc2CN1C(=O)[C@H](CCCNC(=N)N)NC(=O)[C@H](CC1CCCCC1)NC(C)=O)C(=O)N(CCO)CCc1ccccc1 [Compound P81, Ac-Cha-Arg-Tic-Nle-N(CH2CH2OH)CH2CH2Ph] (Ac-[Cha]R[Tic][Nle]-X6) .
4.30

Specify measured log10 IC50 for CSCC[C@H](NC(=O)[C@@H]1Cc2ccccc2CN1C(=O)[C@H](CCCNC(=N)N)NC(=O)[C@H](CC1CCCCC1)NC(C)=O)C(=O)N1CC[C@H](c2ccccc2)[C@H]1C(N)=O [Compound P31, Ac-Cha-Arg-Tic-Met-βPhPro-NH2] (Ac-[Cha]R[Tic]M[Pro(3R-Ph)]-NH2) .
2.93

Specify measured log10 IC50 for CCCC[C@H](NC(=O)[C@@H]1Cc2ccccc2CN1C(=O)[C@@H](NC(=O)[C@H](CC1CCCCC1)NC(C)=O)C1CCN(C(=N)N)CC1)C(=O)N1CC[C@H](c2ccccc2)[C@H]1C(=O)N[C@@H](CO)c1nc(C(=O)N(C)C)c(C(C)C)o1 [Compound P53] (Ac-[Cha][Gly(1-amidinopiperidin-4-yl)][Tic][Nle][Pro(3R-Ph)][X1]-NMe2) .
2.26

Specify measured log10 IC50 for CSCC[C@H](NC(=O)[C@@H]1Cc2ccccc2CN1C(=O)[C@@H](NC(=O)[C@H](CC1CCCCC1)NC(C)=O)C1CCN(C(=N)N)CC1)C(=O)N(CCOCCO)Cc1ccccc1 [Compound P102, Ac-Cha-Gpg-Tic-Met-N(Bn)CH2CH2OCH2CH2OH] (Ac-[Cha][Gly(1-amidinopiperidin-4-yl)][Tic]M-X2) .
3.32
